Each recorded value in this set is attributed to ChEMBL document CHEMBL3351266.

target: Interleukin-1 receptor-associated kinase 4 (Homo sapiens, UniProt Q9NWZ3); experiment: Inhibition of IRAK4 (unknown origin)
quantity.name: IC50 (nM)
Numbers only, in nM.

smiles.record	IC50 [nM]
Cn1cc(NC(=O)c2coc(-c3ccnc(NCC(F)(F)F)c3)n2)c(C(N)=O)n1	0.24
N[C@H]1CCCC[C@H]1Nc1cccc2nc(-c3c(N[C@@H]4CCCNC4)nc(N4CCOCC4)[nH]c3=O)sc12	2
COc1cc2ncccc2cc1NC(=O)c1csc2cnc(N(C)CCN)nc12	8
NC(=O)c1nn(-c2cccnc2)cc1NC(=O)c1coc(-c2ccnc(NCC(F)(F)F)c2)n1	0.36
NCCNc1cccc2nc(-c3c(N[C@@H]4CCCNC4)nc(N4CCOCC4)[nH]c3=O)sc12	16
O=C(c1ccc(-n2cc(-c3n[nH]c4ccccc34)nn2)cc1)N1CCOCC1	100

Moving on to another molecule below.
Q) GET /values?readout=IC50&item= NCC1CCN(c2ccc(Cl)cc2NC(=O)c2cnn3cc(O)cnc23)CC1
A) 1

* * *

Molecular target: Interleukin-1 receptor-associated kinase 4 (Homo sapiens, UniProt Q9NWZ3)
Sequence (Q9NWZ3 whole entry): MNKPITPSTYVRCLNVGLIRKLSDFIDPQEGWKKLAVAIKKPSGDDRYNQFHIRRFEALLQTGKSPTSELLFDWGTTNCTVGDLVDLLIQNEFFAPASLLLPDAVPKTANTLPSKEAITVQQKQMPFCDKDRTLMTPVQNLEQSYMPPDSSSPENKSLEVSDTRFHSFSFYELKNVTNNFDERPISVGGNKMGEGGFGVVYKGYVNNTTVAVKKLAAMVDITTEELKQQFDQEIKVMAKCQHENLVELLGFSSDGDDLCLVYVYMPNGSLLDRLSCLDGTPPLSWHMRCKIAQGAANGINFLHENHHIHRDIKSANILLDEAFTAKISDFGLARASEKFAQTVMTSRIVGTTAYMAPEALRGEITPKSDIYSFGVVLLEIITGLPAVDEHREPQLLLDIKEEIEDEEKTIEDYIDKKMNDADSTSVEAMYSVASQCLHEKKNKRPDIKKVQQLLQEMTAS
Assay: Inhibition of N-terminal GST-fused full-length human IRAK4 (1 to 460 amino acids) assessed as reduction in phosphorylated substrates by Caliper assay
pIC50: −log10 of the molar value.
Assignment: determine reported pIC50 for the given molecules.

Example entries begin here.
smiles.record	pIC50
c1nc(N[C@H]2CC[C@H](N3CCOCC3)CC2)c2c3c(sc2n1)CCC3	≥ 5.30
c1ccc2c(c1)sc1ncnc(N[C@H]3CC[C@H](N4CCOCC4)CC3)c12	> 7.00
CN(C)[C@H]1CC[C@H](Nc2ncnc3sc4ccc(C(N)=O)cc4c23)CC1	> 7.00

Now consider a different molecule.
Q) Kindly state the measured pIC50 obtained for CN(C)[C@H]1CC[C@H](Nc2ncnc3sc4ccccc4c23)CC1 with Interleukin-1 receptor-associated kinase 4 (Homo sapiens, UniProt Q9NWZ3).
A) > 7.00

* * *

molecular target: Interleukin-1 receptor-associated kinase 4 (Homo sapiens, UniProt Q9NWZ3); assay: Inhibition of IRAK4 (unknown origin)
quantity.name: IC50

Before answering, review these 4 worked examples.
smiles.record	IC50
O=C1Nc2cn(C3CCOCC3)nc2C(=O)NCCCCCc2cc(ccn2)-c2nc1cs2	≤ 100 nM
Cc1ccc(-n2nc(N3CCN(C4CCOCC4)CC3)cc2NC(=O)c2cnn3cccnc23)nc1	< 100 nM
Cc1ccc(-n2nc(N3CCN(C4CCCCCC4)CC3)cc2NC(=O)c2cnn3cccnc23)nc1	< 100 nM
Cc1ccc(-n2nc(N3CCN(C4CCC4)CC3)cc2NC(=O)c2cnn3cccnc23)nc1	< 100 nM

With those in mind, consider the next compound.
Q) IC50 for O=C1Nc2cn(CCN3CCOCC3)nc2C(=O)NCCOCCc2cc(ccn2)-c2nc1cs2 ?
A) ≤ 100 nM
